For each of the compounds below, state its GI50.
# System: OVCAR-4
# assay.summary: NCI tumour cell line growth inhibition, 48 h
Calls of active or inactive are those of the source. Cut-off read from the data, not from the text of the source: active = GI50 up to about 1.1 µM and inactive = higher.

compound	system.under.test	GI50
O=C1C=C(OCCCl)C(=O)c2c(O)ccc(O)c21	OVCAR-4	1.64 µM (inactive)
O=C(O)C1C2CC3CC2CC31 (stereo unspecified)	OVCAR-4	> 100 µM (inactive)
CCOC(=O)C(=C(SC)SC)c1nn2c(=O)cc(C)nc2s1	OVCAR-4	28.5 µM (inactive)
C[C@H](NS(=O)(=O)c1ccc(NC(=O)c2ccccc2)cc1)C(=O)O	OVCAR-4	> 100 µM (inactive)
COC(=O)CCn1cnc2c(SC)ncnc21	OVCAR-4	> 100 µM (inactive)

**Q:** GI50 for "CSc1cc(Cl)c(C)cc1S(=O)(=O)NC(=O)NNc1ccccn1" ?
**A:** > 100 µM (inactive)
